Reference source for all entries: PubChem BioAssay (EPA / NIEHS)

Read-out: Monokine induced gamma interferon (MIG), CXCL9 (gene 4283)
Test: BSK_BE3C_MIG: BioMAP Diversity Plus: BE3C Assay for Monokine induced gamma interferon (MIG) Biomarker Activity (AID 2283035);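 further: MIG protein measured by ELISA in BE3C cultures after 24 h of dosing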
Conditions: primary human bronchial epithelial cells; actives raise or lower the signal
Activity calls are given as the source filed them. How the source made its calls: active means hit-call score of the fitted dose curve at least 0.9, where 1 is the maximum; inactive means score below 0.9.
Select the correct class. Options are active, inactive and nothing else.

INSERT INTO results (compound, qualitative_label) VALUES
  ('CN(C)C(=O)Nc1cccc(C(F)(F)F)c1', 'inactive'),
  ('COc1cccc(C(=O)NN(C(=O)c2cc(C)cc(C)c2)C(C)(C)C)c1C', 'inactive'),
  ('CCC(CC)Nc1c([N+](=O)[O-])cc(C)c(C)c1[N+](=O)[O-]', 'inactive'),
  ('CCOC(=O)CC(SP(=O)(OC)OC)C(=O)OCC (configuration not stated)', 'inactive'),
  ('CN1COCN(Cc2cnc(Cl)s2)C1=N[N+](=O)[O-]', 'inactive');

IN: So what was the verdict on CSc1nnc(C(C)(C)C)c(=O)n1N in this test?
OUT: inactive

IN: How about this compound: COc1ccc(C(=CC(=O)N2CCOCC2)c2ccc(Cl)cc2)cc1OC
OUT: inactive

* * *

Assay: CCTE_Shafer_MEA_acute_interburst_interval_mean: CCTE's Neural Acute Assay for Mean Interburst Interval, Shafer Lab (AID 2284016);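 further: percent change of mean interburst interval versus each well's own pre-dose baseline; curves fitted for decrease in interburst interval relative to DMSO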
Activity calls are given as the source filed them. The calls were made as follows: active = hit-call score of the fitted dose curve at least 0.9, where 1 is the maximum; inactive = score below 0.9.
Log the outcome using a class from active, inactive

// below: answered compounds
INSERT INTO results (compound, qualitative_label) VALUES
  ('CC(COc1ccc(Oc2ccccc2)cc1)Oc1ccccn1 (stereo unspecified)', 'inactive'),
  ('COP(=O)(OC)C(O)C(Cl)(Cl)Cl (stereo unspecified)', 'inactive'),
  ('Cc1ccn2nc(S(=O)(=O)Nc3c(F)cccc3F)nc2n1', 'inactive'),
  ('CCOP(=S)(OCC)SCCSCC', 'inactive'),
  ('CC(=NC#N)N(C)Cc1ccc(Cl)nc1', 'inactive');

IN: Entry CC(C)=CC1C(C(=O)OCN2C(=O)C3=C(CCCC3)C2=O)C1(C)C (stereo unspecified) : call = ?
OUT: inactive

IN: Same again, this time with C=C(C)[C@H]1Cc2c(ccc3c2O[C@@H]2COc4cc(OC)c(OC)cc4[C@@H]2C3=O)O1
OUT: inactive

IN: What do we get for CC(C)[C@H](C(=O)O[C@H](C#N)c1cccc(Oc2ccccc2)c1)c1ccc(Cl)cc1 ?
OUT: inactive

IN: // query: CCOP(=S)(OCC)Oc1ccc2c(C)c(Cl)c(=O)oc2c1
OUT: active

IN: What about this compound? CN1COCN(Cc2cnc(Cl)s2)C1=N[N+](=O)[O-]
OUT: inactive

IN: Moving on to O=[N+]([O-])c1cc(C(F)(F)F)c(Cl)c([N+](=O)[O-])c1Nc1ncc(C(F)(F)F)cc1Cl
OUT: active

IN: Same lookup for CN(C)[C@@H]1C(=O)C(C(N)=O)=C(O)[C@@]2(O)C(=O)C3=C(O)c4c(O)cccc4[C@@](C)(O)[C@H]3[C@H](O)[C@@H]12 , please.
OUT: inactive

IN: Let us now turn to C#CCC1=C(C)C(OC(=O)C2C(C=C(C)C)C2(C)C)CC1=O (stereo unspecified)
OUT: inactive

IN: Same thing, different compound: CCOP(=O)(NC(C)C)Oc1ccc(SC)c(C)c1 (stereo unspecified)
OUT: inactive

IN: And Nc1c(Cl)cc([N+](=O)[O-])cc1Cl ?
OUT: active

IN: Note, next up: CCOC(=O)CC(SP(=O)(OC)OC)C(=O)OCC (stereo unspecified)
OUT: inactive
